Recorded microsomal CLint at 1 uM values for a group of compounds are listed next.
# Assay Overview: Metabolic stability in human hepatic microsome
# Format: in vitro ADME
# Condition: microsomes, pH 7.4; human hepatic microsome, NADPH(+); read-out: CL NADPH(+)
Starred links: 1 amine or outer side, 2 acyl side, 3 side chain; linkers in the order of their positions; H or OH if unused. Positions of bridges follow the written chain, without caps; N, C: chain ends. Non-standard residues stand in square brackets, D forms with d. Residues, ends and D or L forms follow the SMILES beside them. *: point of attachment. Phe(3-(CH2)4CO) = O=C([C@H](Cc1cccc(CCCCC(=O)[*:3])c1)N[*:1])[*:2]; NMeF = CN[C@@H](Cc1ccccc1)C(=O)O; NMeβAla = CN(CCC(=O)[*:2])[*:1]; NMeL = CN[C@@H](CC(C)C)C(=O)O; NMeS = CN[C@@H](CO)C(=O)O; NMeA = CN[C@@H](C)C(=O)O; Piperidide = C1CCN(*)CC1; β3hA = C[C@H](N)CC(=O)O; Sar = CNCC(=O)O; tBu = CC(C)(C)*
Could you give me the number in µL/min/mg? Just the number is fine.

Reference set, count: 2
CC(C)C[C@H]1C(=O)N[C@@H]([C@@H](C)O)C(=O)N(C)CC(=O)N(C)[C@@H](Cc2ccccc2)C(=O)N(C)[C@@H](CC(C)C)C(=O)N(C)[C@@H](Cc2ccccc2)C(=O)N(C)[C@@H](CC(C)C)C(=O)N[C@@H](C)C(=O)N[C@H](C(=O)N2CCCCC2)CC(=O)N(C)CCC(=O)N(C)[C@@H](C)C(=O)N1C [DP-471] ([NMeβAla][NMeA][NMeL]T[Sar][NMeF][NMeL][NMeF][NMeL]AD-Piperidide; lactam N-11)
30
CC(C)C[C@H]1C(=O)N[C@@H](COC(C)(C)C)C(=O)N(C)[C@@H](CC(C)C)C(=O)N[C@H](C(=O)N2CCCCC2)Cc2cccc(c2)CCCCC(=O)N(C)[C@@H](C)C(=O)N(C)[C@@H](Cc2ccccc2)C(=O)N(C)[C@@H](CC(C)C)C(=O)N[C@@H]([C@@H](C)O)C(=O)N(C)CC(=O)N1C [DP-838] ([NMeA][NMeF][NMeL]T[Sar][NMeL]S(tBu)[NMeL][Phe(3-(CH2)4CO)]-Piperidide; lactam N-9)
224

Shifting focus to the compound that follows.
Could you tell me which microsomal CLint at 1 uM is on file for CC(C)C[C@@H]1NC(=O)[C@H](CC(C)C)N(C)C(=O)[C@H](C(C)C)NC(=O)[C@H](CC(C)C)N(C)C(=O)CN(C)C(=O)[C@H](C(C)C)NC(=O)[C@H](CO)N(C)C(=O)[C@H](CC(C)C)N(C)C(=O)C[C@H](C)NC(=O)[C@H](CC(C)C)N(C)C(=O)[C@@H](C)NC1=O [DP-653] (cyclo(L[dA][NMeL][β3hA][NMeL][NMeS]V[Sar][NMeL]V[NMeL])) ?
235

====

# Assay Overview: Metabolic stability in human hepatic microsome
# Format: in vitro ADME
# Condition: microsomes, pH 7.4; human hepatic microsome, NADPH(+); read-out: CL NADPH(+)
Starred links: 1 amine or outer side, 2 acyl side, 3 side chain; linkers in the order of their positions; H or OH if unused. Positions of bridges follow the written chain, without caps; N, C: chain ends. Non-standard residues stand in square brackets, D forms with d. Residues, ends and D or L forms follow the SMILES beside them. *: point of attachment. NMePhe(3-Cl) = CN[C@@H](Cc1cccc(Cl)c1)C(=O)O; NMeF = CN[C@@H](Cc1ccccc1)C(=O)O; NMeGABA = CN(CCCC(=O)[*:2])[*:1]; NMeL = CN[C@@H](CC(C)C)C(=O)O; NMeA = CN[C@@H](C)C(=O)O; Piperidide = C1CCN(*)CC1
Recorded microsomal CLint at 1 uM values for a group of compounds are listed next.
Could you give me the number in µL/min/mg? Just the number is fine.

Could you tell me which microsomal CLint at 1 uM is on file for CC[C@H](C)[C@@H]1NC(=O)[C@H](C)N(C)C(=O)[C@H]([C@@H](C)O)NC(=O)[C@H](Cc2ccccc2)N(C)C(=O)CNC(=O)[C@H](CC(C)C)N(C)C(=O)[C@H](C(C)C)NC(=O)[C@H](CC(C)C)N(C)C(=O)[C@H](Cc2ccccc2)NC(=O)[C@H](C)N(C)C(=O)CCCN(C)C(=O)C[C@@H](C(=O)N2CCCCC2)NC1=O [DP-108] ([NMeGABA][NMeA]F[NMeL]V[NMeL]G[NMeF]T[NMeA]ID-Piperidide; lactam N-12) ?
48

How about CC[C@H](C)[C@H](NC(=O)[C@H](C)N(C)C(=O)[C@H](CC(C)C)N(C)C(=O)[C@H](CC(C)C)NC(=O)[C@@H]1CC(=O)N[C@@H](Cc2ccccc2)C(=O)N[C@@H]([C@@H](C)CC)C(=O)N(C)[C@@H](CC(C)C)C(=O)N(C)[C@@H](CC(C)C)C(=O)N[C@@H](Cc2ccccc2)C(=O)N[C@@H]([C@@H](C)O)C(=O)N(C)[C@@H](Cc2cccc(Cl)c2)C(=O)N1)C(=O)N1CCCCC1 [DP-931] (FI[NMeL][NMeL]FT[NMePhe(3-Cl)]DL[NMeL][NMeA]I-Piperidide; lactam N-8) ?
12

====

# Assay Overview: PAMPA (parallel artificial membrane permeability assay)
# Format: in vitro ADME
# Condition: PAMPA; membrane permeation rate (Pe); 50 mM MOPSO buffer pH 6.5 with 5.0% glycocholic acid, 37° C., 18 hours; read-out: iPAMPA Pe
Positions of bridges follow the written chain, without caps; N, C: chain ends. Non-standard residues stand in square brackets, D forms with d. Residues, ends and D or L forms follow the SMILES beside them. *: point of attachment. Met(O2) = CS(=O)(=O)CC[C@H](N)C(=O)O; NMeF = CN[C@@H](Cc1ccccc1)C(=O)O; NMeL = CN[C@@H](CC(C)C)C(=O)O; NMeA = CN[C@@H](C)C(=O)O; Piperidide = C1CCN(*)CC1
Quantity Name: Papp at 18 hours, 50 µM (×10⁻⁶ cm/s)
Could you give me the number in ×10⁻⁶ cm/s? Just the number is fine.

Could you tell me which Papp at 18 hours, 50 µM is on file for CC(C)C[C@@H]1NC(=O)[C@H](CC(C)C)N(C)C(=O)[C@H](C)N(C)C(=O)[C@@H](C(C)C)NC(=O)C[C@@H](C(=O)N2CCCCC2)NC(=O)[C@H](CCS(C)(=O)=O)NC(=O)[C@H](CC(C)C)N(C)C(=O)[C@H](C)N(C)C(=O)[C@H](CC(C)C)N(C)C(=O)[C@H](Cc2ccccc2)NC(=O)[C@H](Cc2ccccc2)N(C)C1=O [DP-620] ([dV][NMeA][NMeL]L[NMeF]F[NMeL][NMeA][NMeL][Met(O2)]D-Piperidide; lactam N-11) ?
24

====

# Assay Overview: in vivo
# Condition: male, C57BL/6J, mouse, po, 20 mg/kg
Positions of bridges follow the written chain, without caps; N, C: chain ends. Non-standard residues stand in square brackets, D forms with d. Residues, ends and D or L forms follow the SMILES beside them. *: point of attachment. NMeF = CN[C@@H](Cc1ccccc1)C(=O)O; NMeI = CC[C@H](C)[C@H](NC)C(=O)O; NMeL = CN[C@@H](CC(C)C)C(=O)O; NMeV = CN[C@H](C(=O)O)C(C)C; NMeA = CN[C@@H](C)C(=O)O; Piperidide = C1CCN(*)CC1; Sar = CNCC(=O)O; tBu = CC(C)(C)*
Recorded CL/F values for a group of compounds are listed next.

Reference set, count: 2
CC(C)C[C@H]1C(=O)N2CCC[C@H]2C(=O)N(C)[C@@H](CC(C)C)C(=O)N[C@@H](C)C(=O)N(C)[C@@H](C(C)C)C(=O)N[C@H](C(=O)N2CCCCC2)CC(=O)N(C)[C@@H](C)C(=O)N[C@@H]([C@@H](C)O)C(=O)N(C)CC(=O)N(C)[C@@H](Cc2ccccc2)C(=O)N(C)[C@@H](Cc2ccccc2)C(=O)N1C [DP-67] ([NMeA]T[Sar][NMeF][NMeF][NMeL]P[NMeL]A[NMeV]D-Piperidide; lactam N-11)
37.9 mL/min/kg
CC[C@H](C)[C@H]1C(=O)N[C@@H](COC(C)(C)C)C(=O)N(C)[C@@H](Cc2ccccc2)C(=O)N(C)[C@@H](C(C)C)C(=O)N[C@H](C(=O)N2CCCCC2)CC(=O)N(C)[C@@H](C)C(=O)N(C)[C@@H](Cc2ccccc2)C(=O)N[C@@H](CC(C)C)C(=O)N(C)[C@@H](CC(C)C)C(=O)N[C@@H]([C@@H](C)O)C(=O)N(C)CC(=O)N1C [DP-47] ([NMeA][NMeF]L[NMeL]T[Sar][NMeI]S(tBu)[NMeF][NMeV]D-Piperidide; lactam N-11)
8.86 mL/min/kg

Could you tell me which CL/F is on file for CC[C@H](C)[C@H]1C(=O)N[C@@H]([C@@H](C)O)C(=O)N(C)CC(=O)N(C)[C@@H](CC(C)C)C(=O)N[C@H](C(=O)N2CCCCC2)CC(=O)N(C)[C@@H](C)C(=O)N[C@@H](CC(C)C)C(=O)N(C)[C@@H](CC(C)C)C(=O)N(C)[C@@H](Cc2ccccc2)C(=O)N[C@@H](C)C(=O)N(C)[C@@H](Cc2ccccc2)C(=O)N1C [DP-101] ([NMeA]L[NMeL][NMeF]A[NMeF][NMeI]T[Sar][NMeL]D-Piperidide; lactam N-11) ?
26.2 mL/min/kg
